test system: K-562 leukemia; test: NCI tumour cell line growth inhibition, 48 h
Could you please report measured TGI for the items listed next?

Example entries begin here.
O=C(NCCNCCO)c1ccc2c(c1)oc1cc3ccccc3c(=O)n12 :: > 50 µM
c1c[nH]c(-c2cccc3nsnc23)c1 :: > 100 µM
O=c1oc2ccc3ccccc3c2cc1-c1cn2ccsc2n1 :: 82.4 µM
COC(=O)/C=C(/C(=O)OC)C1(C)c2cc(C(=O)OC)c(C(=O)OC)c(N)c2C(=N)N1c1ccccc1 (stereo not drawn) :: 51.7 µM
COC(=O)CNC(=O)C(CSC(=O)OCC1c2ccccc2-c2ccccc21)NC(=O)CCC(NC(=O)OCC1c2ccccc2-c2ccccc21)C(=O)OC (stereo not drawn) :: 82.7 µM
Cc1ccc(-c2cc(-c3ccco3)c(C#N)c(=S)[nH]2)cc1 :: > 100 µM

Provide the reported TGI of each entry below, same order.
1. Cc1nn(-c2ccc(Cl)cc2)c2ncnc(N/N=C/c3ccccc3O)c12
2. COC(=O)CC(=O)OSc1ccccc1
3. CCOC(=O)/C=C/c1nc(C#N)c(N)o1
4. CCOC(=O)c1csc(NC(=O)C(C)N2CCCC2)n1 (stereo not drawn)

1. > 100 µM
2. > 100 µM
3. > 100 µM
4. > 100 µM

For every item in the list below, what is its measured TGI?
1. CC(=O)O[C@@H](c1nccn1Cc1ccccc1)[C@H]1OC(C)(C)O[C@@H]1[C@H]1COC(C)(C)O1
2. NS(=O)(=O)c1nnc(NC(=O)N(c2ccccc2)c2ccccc2)s1
3. NCCN1CCCCCc2ccccc21

["> 100 µM", "> 100 µM", "> 10 µM"]

====

test system: HL-60(TB) leukemia; experiment: NCI tumour cell line growth inhibition, 48 h
MEASURED_ENDPOINT: GI50

Known GI50 results, listed for orientation:
Cc1ccc2c(-c3ccnc(Nc4ccc5c(c4)OCCO5)n3)c(-c3ccc(C(F)(F)F)cc3)nn2n1 :: 6.81 µM
CCn1cc(C(=O)O)c(=O)c2cc(F)c(N3CCN(S(=O)(=O)c4cccc5ccccc45)CC3)cc21 :: 2.58 µM
COc1cc(CNc2nc3cc(N)cc(N)c3nc2-c2ccccc2)cc(OC)c1 :: 3.84 µM
O=C1NC(=N[C@@H](CO)c2ccccc2)S/C1=C\c1ccc2ncccc2c1 :: 6.07 µM
Nc1nc2c(c3cnccc13)C(c1ccc(Cl)c(Cl)c1)Cc1cnccc1-2 (stereo not drawn) :: 0.384 µM
O=C1/C(=C/c2ccc(Cl)c(Cl)c2)CN(C(=O)CCN2CCC(=NO)CC2)C/C1=C\c1ccc(Cl)c(Cl)c1 :: 1.48 µM
N#CC1(c2ccc(NC(=O)c3cccnc3NCc3ccncc3)cc2)CCCC1 :: 11.9 µM

Here is another compound to look at.
compound `COc1ccc2c(c1)c(-c1nc(-c3c[nH]c4ncccc34)cs1)cn2CCCN1CCOCC1` , GI50 observed: 2.11 µM

====

test system: KM12 colon; assay: NCI tumour cell line growth inhibition, 48 h
MEASURED_ENDPOINT: TGI

Please report TGI for every entry that follows.
1. NC1=CC(=O)c2c(O)ccc(O)c2C1=O
2. O=c1ccc2ccc(S)cc2o1

["> 78.7 µM", "> 100 µM"]

Need TGI for each of these molecules.
1. Cc1cccc(NC(=O)c2sc3nc4c(cc3c2N)C(=O)CCC4)c1
2. COc1ccc(OC)c(NCC(=O)n2nc(/C=C\c3ccc(O)c(OC)c3)cc2/C=C\c2ccc(O)c(OC)c2)c1
3. Cc1nnc2n(c1=O)CCCN2C
4. CCN(CC)CCCNc1ccc(C)c2sc3ccccc3c(=O)c12

1: > 100 µM; 2: 4.92 µM; 3: > 100 µM; 4: 2.74 µM

====

test system: IGROV1 ovarian; test: NCI tumour cell line growth inhibition, 48 h; in the data active means GI50 below about 0.43 µM; inactive means the rest
Outcomes you can answer with include only these: class 1 for active, class 0 for inactive

c1ccc(-c2[nH]ncc2-c2ccnc(-c3ccc(OCCn4ccnc4)cc3)c2)nc1 :: class 0
CCNc1nc(O)c(/C=C2\C=Nc3ncccc32)s1 :: class 0
COc1ccc2sc3c(NCCCN)nc4ccccc4c3c(=O)c2c1 :: class 0

Turning now to a further record.
Entry `N#Cc1nc2c(S(=O)(=O)c3ccc(Cl)cc3)c(N)n(Nc3cccc(Cl)c3)c2nc1C#N` : call = ?
class 1

====

test system: MDA-MB-231 breast; assay: NCI tumour cell line growth inhibition, 48 h
Hi there, I'd appreciate the recorded TGI for every entry that follows.

Cc1cccc(NC(=O)c2sc3nc4c(cc3c2N)C(=O)CCC4)c1 :: > 44.5 µM

Okay, here is my list. What is TGI for each of these?
1. CCN(CC)CCCNc1ccc(C)c2sc3ccccc3c(=O)c12
2. CNCc1cccc2c1OCCOCCOCCN(C)S(=O)(=O)c1ccc(cc1)-c1cnc(N)c(n1)C(=O)N2
3. CC(=O)c1ccc(Oc2c3ccccc3nc3ccccc23)cc1
4. COCOc1ccc(C(=O)Oc2cccc3c2OC(C)(C)O3)c(OCOC)c1
5. COC(=O)c1ccccc1C1CN=NC12Cc1c(ccc(C)c1C)C2=O (centres undefined)
6. CN(C)C(=O)C(F)(F)C(c1ccc(F)cc1)C1C(=O)N(C)C(=O)N(C)C1=O (centres undefined)
7. c1ccc(C2=NC3OC2c2ccccc23)cc1 (centres undefined)
8. COc1ccc(C(=O)c2cc(OC)c(OC)c(OC)c2OC)cc1O

0.863 µM
6.44 µM
25.5 µM
> 100 µM
> 100 µM
> 100 µM
> 10 µM
> 100 µM

====

List of GI50 tested on U251 CNS.

Parameter requested: GI50. Apply to each item below.
1. COc1ccc2c(c1)c(-c1nc(-c3c[nH]c4ncccc34)cs1)cn2CCCN1CCOCC1
2. CCCCCCCCCCCC[N+]1(CCCCCCCCCCCC)CCCC(C)C1 (stereo not given)
3. C[C@]12CC[C@H]3[C@@H](CCC4=CC(=O)CC[C@@]43C)[C@@H]1CC[C@@H]2c1csc(N)n1
4. Cc1c2ccnc(C(N)=O)c2c(C)c2c1[nH]c1ccccc12
5. O=C1NN(C2=NNC3(C(=O)N2)c2ccccc2-c2ccccc23)C(c2ccccc2)=N/C1=C/c1ccc(Cl)cc1

1. 2.25 µM
2. 0.327 µM
3. 3.83 µM
4. 4.14 µM
5. 41.3 µg/mL

====

test system: UO-31 renal; experiment: NCI tumour cell line growth inhibition, 48 h
MEASURED_ENDPOINT: TGI

Cc1cc([N+](=O)[O-])c(C)c2c1[nH]c1ccc(Cl)cc12 :: > 100 µM
O=C(NC12CC3CCC1CC(C3)C2)[C@@H]1CCCN1C(=O)OCc1ccccc1 (some centres undefined) :: > 100 µM
COc1ccc2c(c1)C(=O)c1c-2c(Nc2ccccc2OC)nc2ccccc12 :: > 100 µM

Switching to the query record.
Tested on UO-31 renal, the item `CN[C@@H](C)C(=O)N[C@H]1CN(S(=O)(=O)c2cccc(S(=O)(=O)N3CC[C@H]4CC[C@@H](C(=O)NC(c5ccccc5)c5ccccc5)N4C(=O)[C@@H](NC(=O)[C@H](C)NC)C3)c2)CC[C@H]2CC[C@@H](C(=O)NC(c3ccccc3)c3ccccc3)N2C1=O` showed TGI equal to > 100 µM

====

system: SW-620 colon; test: NCI tumour cell line growth inhibition, 48 h
Would you kindly list GI50 for each of these molecules?

Some entries whose results are on file:
Cc1ccc2c(-c3ccnc(Nc4ccc5c(c4)OCCO5)n3)c(-c3ccc(C(F)(F)F)cc3)nn2n1 :: > 25 µM
Cc1ccc(O)cc1Nc1ccnc2ccc(S(C)(=O)=O)cc12 :: 15.2 µM

GI50 reported for this molecule `O=C(Nc1cccc(-n2cc(-c3ccncc3)c(-c3cc(O)cc(Cl)c3)n2)c1)c1ccc(N2CCOCC2)c(C(F)(F)F)c1` : 2.83 µM

====

tested on: HCT-116 colon; experiment: NCI tumour cell line growth inhibition, 48 h
Task for the reader: assign each of the following molecules its reported TGI.
Numbers only, in µM.

CC(=O)c1ccc(Oc2c3ccccc3nc3ccccc23)cc1 :: 8.81
O=C(Nc1ccc(N=C=S)cc1Cl)c1cc(Br)cc(Br)c1O :: 31.7
O=C1C=C[C@H](O)[C@@]2(CO)O[C@@H]12 :: 3.33
COC(=O)CC(=O)OSc1ccccc1 :: 26.9
O=CC(I)=C(c1ccccc1)c1ccccc1 :: 27.2
COc1cc([C@@H]2c3cc4c(cc3[C@@H](NC(=O)c3ccc(C#N)cc3)C3COC(=O)[C@@H]32)OCO4)cc(OC)c1O (some centres undefined) :: 3.29

Field: TGI. Fill in for each record below.
1. Cc1c(C)n(-c2ccccc2)c2nc(S(C)=O)nc(S(C)=O)c12 (centres undefined)
2. COC(=O)/C=C(/C(=O)OC)C1(C)c2cc(C(=O)OC)c(C(=O)OC)c(N)c2C(=N)N1c1ccccc1 (centres undefined)

[4.86, 29.3]
